Kindly state inhibition at 1 µM for each of the entries shown.
biological target: ABHD6 (Mus musculus (Mouse), UniProt Q8R2Y0); assay: In vitro competitive activity-based protein profiling (mouse brain membrane fraction or cell lysates), ABHD6 band; format: biochemical; conditions: 1 μM, mouse; read-out: ABHD6 % Inh 1 μM (mouse)
Sequence (Q8R2Y0 whole entry): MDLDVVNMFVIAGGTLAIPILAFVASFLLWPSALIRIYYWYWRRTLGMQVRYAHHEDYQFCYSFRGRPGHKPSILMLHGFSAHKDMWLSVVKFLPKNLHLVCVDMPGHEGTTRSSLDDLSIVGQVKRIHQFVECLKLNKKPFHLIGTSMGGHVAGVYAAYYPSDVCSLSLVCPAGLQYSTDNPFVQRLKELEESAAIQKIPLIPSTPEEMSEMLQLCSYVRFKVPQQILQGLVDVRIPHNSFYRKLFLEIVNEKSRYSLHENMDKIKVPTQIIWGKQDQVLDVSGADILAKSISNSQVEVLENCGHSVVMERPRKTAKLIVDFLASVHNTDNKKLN

Entry under test: O=C(O)C1CCN(C(=O)c2cc(C(F)(F)F)ccc2CN2CCCC23CCN(C(=O)OC(C(F)(F)F)C(F)(F)F)CC3)CC1 [Example 281] . Its inhibition at 1 µM was 25 to 75%

Entry under test: CC1(C(=O)O)CCCN(c2cc(CN3CCC4(CCN(C(=O)OC(C(F)(F)F)C(F)(F)F)CC4)C3)cc(C(F)(F)F)c2)C1 (centres unmarked) [Example 223] . Its inhibition at 1 µM was < 25%

Entry under test: Cc1ccc(CN2CCCC23CCN(C(=O)OC(C(F)(F)F)C(F)(F)F)CC3)cc1C(=O)O [Example 257] . Its inhibition at 1 µM was < 25%

Entry under test: O=C(O)C1CCN(Cc2cc(C(F)(F)F)ccc2CN2CCCC23CCN(C(=O)OC(C(F)(F)F)C(F)(F)F)CC3)CC1 [Example 238] . Its inhibition at 1 µM was < 25%

Entry under test: O=C(O)C1CCN(c2cc(F)cc(CN3CCC4(CCN(C(=O)OC(C(F)(F)F)C(F)(F)F)CC4)C3)c2)CC1 [Example 233] . Its inhibition at 1 µM was 25 to 75%
